target: HDAC9 enzyme (Homo sapiens); construct: transducing full length HDAC9 gene into Sf-9 insect cells; made in house; host or cells: Sf-9 insect cells; experiment: HDAC9 Enzyme Inhibitory Assay (HDAC-Glo class IIa); format: biochemical; conditions: 1 μM test compound; wells without enzyme = 100% inhibition; read-out: HDAC9 inhibitory rate (%) (1 μM)
Sequence (Q9UKV0 whole entry, species assumed): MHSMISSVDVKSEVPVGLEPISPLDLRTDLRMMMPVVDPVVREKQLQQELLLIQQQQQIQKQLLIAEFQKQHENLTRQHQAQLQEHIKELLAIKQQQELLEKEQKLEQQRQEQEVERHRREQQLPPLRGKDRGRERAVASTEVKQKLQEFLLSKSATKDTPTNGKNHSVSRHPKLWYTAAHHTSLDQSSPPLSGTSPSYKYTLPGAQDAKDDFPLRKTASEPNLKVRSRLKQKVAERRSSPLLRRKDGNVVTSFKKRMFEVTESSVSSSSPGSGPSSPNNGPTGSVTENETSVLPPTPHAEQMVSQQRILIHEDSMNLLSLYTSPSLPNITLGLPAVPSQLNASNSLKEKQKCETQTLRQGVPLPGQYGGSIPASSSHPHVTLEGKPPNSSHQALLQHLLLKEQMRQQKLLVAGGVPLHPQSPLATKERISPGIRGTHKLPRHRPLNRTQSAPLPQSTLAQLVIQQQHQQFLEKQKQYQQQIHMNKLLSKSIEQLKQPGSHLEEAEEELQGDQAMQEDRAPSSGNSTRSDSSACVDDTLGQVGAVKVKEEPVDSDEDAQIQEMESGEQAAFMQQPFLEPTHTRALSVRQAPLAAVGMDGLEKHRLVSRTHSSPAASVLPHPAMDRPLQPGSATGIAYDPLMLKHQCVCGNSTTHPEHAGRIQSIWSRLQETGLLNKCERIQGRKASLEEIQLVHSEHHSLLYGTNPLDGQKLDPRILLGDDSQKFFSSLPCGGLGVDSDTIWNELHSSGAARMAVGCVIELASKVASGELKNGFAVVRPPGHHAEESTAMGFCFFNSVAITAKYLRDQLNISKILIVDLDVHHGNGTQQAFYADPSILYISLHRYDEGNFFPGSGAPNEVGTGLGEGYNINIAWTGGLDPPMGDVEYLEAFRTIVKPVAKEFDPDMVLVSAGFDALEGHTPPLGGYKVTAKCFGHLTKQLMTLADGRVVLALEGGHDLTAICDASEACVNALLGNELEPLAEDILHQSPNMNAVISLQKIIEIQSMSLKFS
quantity: inhibition at 1 µM (%)
Answers are plain numbers, in %.

Respectfully, I request inhibition at 1 µM for each entry included below.
1. N[C@H]1CCCC[C@@H]1N1Cc2ccc(-c3noc(C(F)(F)F)n3)cc2C1=O
2. O=C(N[C@@H]1CCCC[C@H]1N1Cc2ccc(-c3noc(C(F)(F)F)n3)cc2C1=O)N1CCCC1
3. O=C(c1ccccc1)N1CCCC(N2Cc3ncc(-c4noc(C(F)(F)F)n4)cc3C2=O)C1 (centres unmarked)
4. O=C1CC[C@@H](C(=O)N[C@@H]2CCCC[C@H]2N2Cc3ccc(-c4noc(C(F)(F)F)n4)cc3C2=O)N1
5. O=C(N[C@@H]1CCCC[C@H]1N1Cc2ccc(-c3noc(C(F)(F)F)n3)cc2C1=O)N1CC(F)(F)C1

**Result**
1. 45
2. 34
3. 97
4. 39
5. 34

* * *

target: HDAC1 enzyme (Homo sapiens, UniProt Q13547); construct: transducing full length HDAC1 and HDAC6 genes into Sf-9 insect cells; GST; purchased SignalChem; host or cells: Sf-9 insect cells; test: HDAC1/6 Enzyme Inhibitory Assay (HDAC-Glo I/II Assay kit), HDAC1; format: biochemical; details: 1 μM test compound; wells without enzyme = 100% inhibition; read-out: HDAC1 inhibitory rate (%) (1 μM)
Sequence (Q13547 whole entry): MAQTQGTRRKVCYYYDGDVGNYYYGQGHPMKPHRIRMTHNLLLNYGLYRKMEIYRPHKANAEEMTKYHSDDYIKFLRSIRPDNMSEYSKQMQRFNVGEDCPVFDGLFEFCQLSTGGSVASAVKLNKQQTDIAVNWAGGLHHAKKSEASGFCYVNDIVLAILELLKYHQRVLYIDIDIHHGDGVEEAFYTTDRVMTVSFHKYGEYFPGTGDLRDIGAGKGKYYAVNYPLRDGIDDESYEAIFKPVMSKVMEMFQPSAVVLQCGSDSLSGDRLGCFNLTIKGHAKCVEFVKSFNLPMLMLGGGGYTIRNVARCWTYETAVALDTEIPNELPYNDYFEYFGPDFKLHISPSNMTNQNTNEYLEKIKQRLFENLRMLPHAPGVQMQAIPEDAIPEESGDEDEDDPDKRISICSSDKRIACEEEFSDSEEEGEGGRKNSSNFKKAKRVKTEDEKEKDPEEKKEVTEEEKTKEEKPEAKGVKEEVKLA
quantity: inhibition at 1 µM (%)
One number for each entry, in %.

compound: CC(C)(C)OC(=O)N[C@H]1CCCC[C@H]1N1Cc2ccc(-c3noc(C(F)(F)F)n3)cc2C1=O
measurement_target: HDAC1 enzyme (Homo sapiens, UniProt Q13547)
inhibition at 1 µM [%]: 41

compound: CC(C)(C)OC(=O)N1CC[C@H](N2Cc3ccc(-c4noc(C(F)(F)F)n4)cc3C2=O)[C@@H](c2ccccc2)C1
measurement_target: HDAC1 enzyme (Homo sapiens, UniProt Q13547)
inhibition at 1 µM [%]: 30

compound: CC1(C(=O)N[C@@H]2CCOC[C@H]2N2Cc3ccc(-c4noc(C(F)(F)F)n4)cc3C2=O)COC1
measurement_target: HDAC1 enzyme (Homo sapiens, UniProt Q13547)
inhibition at 1 µM [%]: 6

compound: CC(=O)N1CC(N2Cc3ncc(-c4noc(C(F)(F)F)n4)cc3C2=O)C1
measurement_target: HDAC1 enzyme (Homo sapiens, UniProt Q13547)
inhibition at 1 µM [%]: 11

compound: O=C1c2cc(-c3noc(C(F)(F)F)n3)ccc2CN1[C@@H]1CCNC[C@H]1c1cccc(Cl)c1 (relative stereo)
measurement_target: HDAC1 enzyme (Homo sapiens, UniProt Q13547)
inhibition at 1 µM [%]: 98

Respectfully, I request inhibition at 1 µM for each entry included below.
1. CC(C)(C)OC(=O)N[C@H]1CCCC[C@@H]1N1Cc2ccc(-c3noc(C(F)(F)F)n3)cc2C1=O
2. O=C(N[C@H]1CCCC[C@@H]1N1Cc2ccc(-c3noc(C(F)(F)F)n3)cc2C1=O)[C@@H]1CCCO1
3. CC(C)(O)C(=O)N[C@@H]1CCCC[C@H]1N1Cc2ccc(-c3noc(C(F)(F)F)n3)cc2C1=O
4. O=C(N[C@@H]1CCCC[C@H]1N1Cc2ccc(-c3noc(C(F)(F)F)n3)cc2C1=O)N1CCOCC1
5. O=C(N[C@@H]1CCCC[C@H]1N1Cc2ccc(-c3noc(C(F)(F)F)n3)cc2C1=O)C1CCC1
6. CCNC(=O)N1CC[C@@H](N2Cc3ccc(-c4noc(C(F)(F)F)n4)cc3C2=O)[C@H](c2ccccc2)C1
7. O=C(C1CC1)N1C[C@@H](N2Cc3ccc(-c4noc(C(F)(F)F)n4)cc3C2=O)[C@H](c2ccccc2)C1 (relative stereo)

**Result**
16
21
3
5
14
88
70

Respectfully, I request inhibition at 1 µM for each entry included below.
1. O=C1c2cc(-c3noc(C(F)(F)F)n3)ccc2CN1[C@@H]1CCCC[C@H]1NC(=O)C1(O)CCC1
2. CC1(C(=O)N[C@H]2CCCC[C@@H]2N2Cc3ccc(-c4noc(C(F)(F)F)n4)cc3C2=O)COC1
3. CN1CCCCC1C(=O)N[C@@H]1CCCC[C@H]1N1Cc2ccc(-c3noc(C(F)(F)F)n3)cc2C1=O (stereo partly drawn)
4. O=C(N[C@@H]1CCCC[C@H]1N1Cc2ccc(-c3noc(C(F)(F)F)n3)cc2C1=O)N1CCCC1

**Result**
[5, 4, 3, 4]

Respectfully, I request inhibition at 1 µM for each entry included below.
1. N#CC1(C(=O)N[C@@H]2CCCC[C@H]2N2Cc3ccc(-c4noc(C(F)(F)F)n4)cc3C2=O)CC1
2. CN1CCC(C(=O)N[C@@H]2CCCC[C@H]2N2Cc3ccc(-c4noc(C(F)(F)F)n4)cc3C2=O)CC1
3. Cc1cc([C@@H]2CNCC[C@H]2N2Cc3ccc(-c4noc(C(F)(F)F)n4)cc3C2=O)ccc1Cl (relative stereo)
4. Cc1ccc([C@@H]2CNCC[C@H]2N2Cc3ccc(-c4noc(C(F)(F)F)n4)cc3C2=O)cc1F (relative stereo)
5. CC(=O)N1CC[C@@H](N2Cc3cc(-c4noc(C(F)(F)F)n4)ccc3C2=O)[C@H](c2ccccc2)C1 (relative stereo)

**Result**
1: 6; 2: -4; 3: 93; 4: 90; 5: 25
